Recorded pEC50, one value per entry.
Method summary: Cytotoxicity against human RS4:11 cells expressing high level of Bcl-2 and Bcl-xL after 24 hrs by annexin V-FITC and propidium iodide staining
Measurement context: RS4-11, 24 h
pEC50: −log10 of the molar value.
Measured quantity: pEC50

> print(dat)
                  compound.structure.string  value.comparator   val
1  CC1=C(C2=C(C)C(=O)c3c(cc(O)c(O)c3CCc3ccc(OC(F)(F)F)cc3)C2=O)C(=O)c2cc(O)c(O)c(CCc3ccc(OC(F)(F)F)cc3)c2C1=O                 =  5.14
2  CC1=C(C2=C(C)C(=O)c3c(cc(O)c(O)c3C(=O)NCc3cccc(C)c3)C2=O)C(=O)c2cc(O)c(O)c(C(=O)NCc3cccc(C)c3)c2C1=O                 <  4.52
3  CC1=C(C2=C(C)C(=O)c3c(cc(O)c(O)c3CC3CCCC3)C2=O)C(=O)c2cc(O)c(O)c(CC3CCCC3)c2C1=O                 =  5.01
4  CC1=C(C2=C(C)C(=O)c3c(cc(O)c(O)c3Cc3ccc(-c4ccccc4)cc3)C2=O)C(=O)c2cc(O)c(O)c(Cc3ccc(-c4ccccc4)cc3)c2C1=O                 =  5.76
5  CC1=C(C2=C(C)C(=O)c3c(cc(O)c(O)c3CCC(C)(C)c3ccccc3)C2=O)C(=O)c2cc(O)c(O)c(CCC(C)(C)c3ccccc3)c2C1=O                 =  4.82
6  CC1=C(C2=C(C)C(=O)c3c(cc(O)c(O)c3CCCc3ccc(F)cc3)C2=O)C(=O)c2cc(O)c(O)c(CCCc3ccc(F)cc3)c2C1=O                 =  4.95
